These entries and their values trace back to patent US20130244929A1.

I'd be grateful if you could share measured pIC50 for these entries.
- ASSAYED TARGET: SpsB (Staphylococcus aureus, UniProt P0A070)
- Construct: using a bacterial membrane fraction as a source of SpsB; from tissue
- Sequence (P0A070 1-191): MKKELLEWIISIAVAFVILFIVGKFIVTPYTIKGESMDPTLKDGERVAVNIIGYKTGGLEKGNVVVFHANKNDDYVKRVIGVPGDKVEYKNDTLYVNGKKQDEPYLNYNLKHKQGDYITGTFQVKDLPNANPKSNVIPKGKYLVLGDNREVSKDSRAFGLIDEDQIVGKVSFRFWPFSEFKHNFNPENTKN
- TEST NAME: Inhibition of SpsB enzyme activity (fluorescence-based assay, bacterial membrane fraction)
- Assay type: biochemical
pIC50: −log10 of the molar value.

Example results:
C[C@@H]1NC(=O)[C@@H](N(C)C(=O)[C@@H]2CCCN2C(=O)CCNC(=O)c2ccc(CCCCCCCCc3ccccc3)cc2)c2ccc(O)c(c2)-c2cc(ccc2O)C[C@@H](C(=O)O)NC1=O    > 8.00
CCCCc1ccc(C#Cc2ccc(C(=O)NCCC(=O)NC(CCCCN)C(=O)N(C)[C@@H]3C(=O)N[C@@H](C)C(=O)N[C@H](C(=O)O)Cc4ccc(OC)c(c4)-c4cc3ccc4OC)cc2)cc1 (stereo partly shown)    > 8.00
CCCCCCCCCCc1ccc2ccc(C(=O)NCCC(=O)N3CCC[C@H]3C(=O)N(C)[C@@H]3C(=O)N[C@@H](C)C(=O)N[C@H](C(=O)O)Cc4cccc(c4)-c4cc3ccc4OC)cc2c1    7.30 to 8.00
CCCCCCCCCc1ccc(-c2ccc(C(=O)NCCC(=O)N[C@@H](CCCCN)C(=O)N(C)[C@@H]3C(=O)N[C@@H](C)C(=O)N[C@H](C(=O)O)Cc4ccc(O)c(c4)-c4cc3ccc4O)c(C)c2)cc1    > 8.00
C[C@@H]1NC(=O)[C@@H](N(C)C(=O)[C@H](CCCCN)NC(=O)CCNC(=O)c2ccc(CCCCCCCc3ccccc3)cc2)c2ccc(O)c(c2)-c2cc(ccc2O)C[C@@H](C(=O)O)NC1=O    > 8.00
CCCCCCCCCc1ccc(-c2cnc(C(=O)NCCC(=O)N[C@@H](CCCCN)C(=O)N(C)[C@@H]3C(=O)N[C@@H](C)C(=O)N[C@H](C(=O)O)Cc4ccc(O)c(c4)-c4cc3ccc4O)nc2)cc1    7.30 to 8.00
C[C@@H]1NC(=O)[C@@H](N(C)C(=O)[C@H](CCCCN)NC(=O)CCNC(=O)c2ccc(-c3ccc(C(C)(C)C)cc3)cc2)c2ccc(O)c(c2)-c2cc(ccc2O)C[C@@H](C(=O)O)NC1=O    > 8.00
CCCCCCCCCc1ccc(-c2ccc(C(=O)NCCC(=O)N[C@@H](CCCCN)C(=O)N(C)[C@@H]3C(=O)N[C@@H](C)C(=O)N[C@H](C(=O)O)Cc4ccc(O)c(c4)-c4cc3ccc4O)nc2)cc1    > 8.00
CCCc1ccc(-c2ccc(C(=O)NCCC(=O)N[C@@H](CCCN)C(=O)N(C)[C@@H]3C(=O)N[C@@H](C)C(=O)N[C@H](C(=O)O)Cc4ccc(O)c(c4)-c4cc3ccc4O)cc2)cc1    > 8.00

Q: Quick one: pIC50 of CCCCCCCCCc1ccc(-c2nc(C(=O)NCCC(=O)N[C@@H](CCCCN)C(=O)N(C)[C@@H]3C(=O)N[C@@H](C)C(=O)N[C@H](C(=O)O)Cc4ccc(O)c(c4)-c4cc3ccc4O)cs2)cc1 ?
Ans: > 8.00
